Biological target: HsPDF (Homo sapiens, UniProt Q9HBH1)
Construct: A 63 amino acid N-terminally truncated human peptide deformylase (HsPDF); 6His (C); made in house; host or cells: E. coli BL21 (DE3), co-transformed with the GroES/EL chaperone plasmid
Test: HsPDF %I 100uM
Listed here: items and their measured HsPDF %I 100uM.

- compound: "COc1ccc(C(=O)c2coc3cc(Cl)c(O)c(Cl)c23)cc1 [SKC-BF-Int10D]"
  HsPDF %I 100uM: "26 %I"
- compound: "COc1ccc(C(=O)c2coc3ccc(O)c(Br)c23)cc1"
  HsPDF %I 100uM: "-20 %I"
- compound: "O=C(c1ccccc1)c1coc2c(Cl)c(Cl)c(O)cc12"
  HsPDF %I 100uM: "24 %I"
